Molecular target: T1, recombinant human GPC1 (human, UniProt P35052 24-530, limits assumed)
T1 sequence (looked up): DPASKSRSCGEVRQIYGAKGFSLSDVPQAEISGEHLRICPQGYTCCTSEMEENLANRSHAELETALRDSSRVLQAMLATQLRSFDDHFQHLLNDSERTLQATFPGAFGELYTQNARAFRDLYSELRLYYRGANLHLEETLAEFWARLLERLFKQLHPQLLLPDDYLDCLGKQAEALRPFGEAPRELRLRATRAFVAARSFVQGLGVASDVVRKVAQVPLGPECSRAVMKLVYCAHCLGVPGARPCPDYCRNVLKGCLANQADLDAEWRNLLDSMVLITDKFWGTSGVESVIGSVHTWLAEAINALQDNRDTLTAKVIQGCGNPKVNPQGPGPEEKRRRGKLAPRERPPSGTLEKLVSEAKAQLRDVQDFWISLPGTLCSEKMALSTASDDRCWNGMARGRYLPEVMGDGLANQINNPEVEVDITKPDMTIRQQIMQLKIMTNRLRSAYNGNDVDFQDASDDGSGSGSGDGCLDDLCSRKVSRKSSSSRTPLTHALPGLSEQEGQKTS
Experiment: monoclonal phage ELISA on recombinant glypicans
experimental.readout: binding result

VH single domain antibody LH4 (phage clone) (VHH, Human VH single domain) VHH: QVQLVQSGGGLVQPGGSLRLSCAASSFYFDDYEMSWVRQAPGKALEWIGRIYTSGSTNYNPSLKSRVTISRDNSKNTLYLQMNTLRAEDTATYYCARGYCSGGSCYFDYWGQGTLVTVSS = no binding
VH single domain antibody LH1 (phage clone) (VHH, Human VH single domain (not camelid)) VHH: QVQLVQSGGGLVQPGGSLRLSCAASDFDFAAYEMSWVRQAPGKGLEWIGEINHSGSTTYNPSLKSRVTISRDNSKNTLYLQMNTLRAEDTAVYYCATAVHYYDSSGYYHDAFDIWGQGTLVTVSS = no binding
